This collection of values is drawn from paper PMC4336329.

- ASSAYED SYSTEM: human ether-à-go-go-related gene (hERG) potassium channel (human);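 further: peak tail current of the secondary pulse compared with the same well before compound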
- TEST: primary screen, population patch clamp on CHO cells stably expressing hERG; higher = less effect of the substance
About 14,000 (4.5%) of roughly 310,000 compounds showed an effect of 50% or more. Effects have a minus sign here. Shown is part of a subset that was picked to be rich in strong results.
I'd be grateful if you could share measured hERG current change (%, negative = inhibition) at 10uM for these entries.
One number for each entry, in %.

Please review the following examples before continuing.
{"COMPOUND": "CCC1=C2CC[C@H]3C(=O)N(CC)C(=O)[C@H]3[C@H]2[C@@]2(Cc3ccccc3)C(=NCCOC)OC(=O)N2C1=O", "UOM": "%", "DATA VALUE": 10}
{"COMPOUND": "Cc1cccc(C(=O)N/C(=C\\c2ccco2)C(=O)N2CCCC2)c1", "UOM": "%", "DATA VALUE": -18.6}
{"COMPOUND": "COc1ccc(CC2(CO)CCN(S(=O)(=O)N(C)C)CC2)cc1", "UOM": "%", "DATA VALUE": 9.82}
{"COMPOUND": "O=C(CCc1ccccc1)Nc1ccc(NC(=O)C2CCCCC2)nc1", "UOM": "%", "DATA VALUE": 7.57}

State the recorded hERG current change (%, negative = inhibition) at 10uM for every item in the following list.
1. Cc1nn(C)c(C)c1NC(=O)/C(C#N)=C\N(C)C
2. Cc1cc(=O)oc(C)c1C(=O)OCC(=O)c1ccccc1
3. C(=N\c1nc2ccccc2n1CCN1CCOCC1)/c1cccs1
4. CC(COc1ccccc1)N1CCC(CO)(Cc2ccccc2)CC1 (centres unmarked)

Key:
1. 12.6
2. -5.02
3. -20.7
4. -50.6

State the recorded hERG current change (%, negative = inhibition) at 10uM for every item in the following list.
1. O=C(NC1CC1)c1ccc(-c2nc3ccccc3s2)s1
2. CCOC(=O)c1ccccc1NC(=O)COC(=O)C1=COCCO1
3. Cc1ccsc1C(=O)N1CCC(CO)(Cc2ccccc2)CC1
4. CC(C)NC[C@H](O)COc1ccc(CC(N)=O)cc1

Key:
[10.7, 4.78, 17.6, 12.8]

State the recorded hERG current change (%, negative = inhibition) at 10uM for every item in the following list.
1. COc1ccc(CC2(CO)CCN(C(C)Cc3ccc(Cl)cc3)CC2)cc1 (centres unmarked)
2. Cc1oc(-c2ccccc2F)nc1CN1CCC(C(=O)NCc2ccco2)CC1

Key:
1: -80.4; 2: -38

---

- ASSAYED SYSTEM: human ether-à-go-go-related gene (hERG) potassium channel (human, UniProt Q12809);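 further: peak tail current of the secondary pulse compared with the same well before compound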
- Sequence (Q12809 whole entry, looked up): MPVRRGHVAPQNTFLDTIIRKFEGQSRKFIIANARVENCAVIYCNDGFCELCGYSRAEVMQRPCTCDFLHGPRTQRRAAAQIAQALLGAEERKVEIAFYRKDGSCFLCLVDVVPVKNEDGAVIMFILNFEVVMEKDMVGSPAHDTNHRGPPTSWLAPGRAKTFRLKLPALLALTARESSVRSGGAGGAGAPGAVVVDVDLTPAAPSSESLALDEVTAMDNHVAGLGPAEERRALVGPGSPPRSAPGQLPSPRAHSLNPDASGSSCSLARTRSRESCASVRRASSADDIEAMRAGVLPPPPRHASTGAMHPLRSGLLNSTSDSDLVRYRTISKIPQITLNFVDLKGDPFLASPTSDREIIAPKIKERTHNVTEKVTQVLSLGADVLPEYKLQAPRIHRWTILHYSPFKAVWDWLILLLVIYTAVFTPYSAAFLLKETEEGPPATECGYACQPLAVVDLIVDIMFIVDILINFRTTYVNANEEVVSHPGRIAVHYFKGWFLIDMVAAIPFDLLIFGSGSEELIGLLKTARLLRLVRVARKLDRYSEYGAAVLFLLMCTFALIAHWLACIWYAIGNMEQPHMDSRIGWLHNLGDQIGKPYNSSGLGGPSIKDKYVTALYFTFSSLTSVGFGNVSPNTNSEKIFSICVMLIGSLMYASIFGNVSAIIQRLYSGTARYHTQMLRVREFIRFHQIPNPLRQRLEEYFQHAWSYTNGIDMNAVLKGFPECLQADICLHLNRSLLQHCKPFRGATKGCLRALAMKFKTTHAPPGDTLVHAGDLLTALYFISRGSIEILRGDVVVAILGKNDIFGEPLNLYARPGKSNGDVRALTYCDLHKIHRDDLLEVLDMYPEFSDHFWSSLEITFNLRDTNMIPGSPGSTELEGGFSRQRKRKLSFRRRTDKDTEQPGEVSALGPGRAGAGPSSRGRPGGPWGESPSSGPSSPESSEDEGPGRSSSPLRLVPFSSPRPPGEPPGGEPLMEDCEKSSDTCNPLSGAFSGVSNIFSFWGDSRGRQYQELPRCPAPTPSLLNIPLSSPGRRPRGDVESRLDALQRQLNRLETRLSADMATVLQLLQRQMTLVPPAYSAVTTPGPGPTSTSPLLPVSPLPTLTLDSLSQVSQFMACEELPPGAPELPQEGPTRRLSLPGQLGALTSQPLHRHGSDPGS
- TEST: primary screen, population patch clamp on CHO cells stably expressing hERG; higher = less effect of the substance
Among all 310,000 compounds or so, about 14,000 (4.5%) showed an effect of 50% or more. Effects have a minus sign here. Shown is part of a subset that was picked to be rich in strong results.
MEASURED PROPERTY: hERG current change (%, negative = inhibition) at 10uM
Please answer using a numeric value trailed by its unit.

{"COMPOUND": "Cc1cc(NC(=O)CCN2CCN(C)CC2)ccc1Br.Cl", "DATA VALUE": "-7.85%"}
{"COMPOUND": "COc1cccc(-n2c(CN3CCN(C)CC3)nc3ccc([N+](=O)[O-])cc3c2=O)c1", "DATA VALUE": "-33.1%"}
{"COMPOUND": "O=C(CCNC(=O)c1ccco1)Nc1ccccc1", "DATA VALUE": "15%"}
{"COMPOUND": "Cc1cc(NC(=O)CCN2CCCCC2)ccc1Br", "DATA VALUE": "-72.8%"}
{"COMPOUND": "CN(Cc1ccccc1)C1CCCN(C(=O)c2ccc(Cl)s2)C1 (stereo not drawn)", "DATA VALUE": "-30.4%"}
{"COMPOUND": "CC(C)CN(C(=O)Cn1c(C(F)(F)F)nc2ccccc21)C1CCS(=O)(=O)C1 (stereo not drawn)", "DATA VALUE": "-9.53%"}

State the recorded hERG current change (%, negative = inhibition) at 10uM for every item in the following list.
1. COc1cccc(-n2cnc3c(sc4nc(N5CCOCC5)c5c(c43)CCCC5)c2=O)c1
2. Cc1cc(NC(=O)CCN2CCN(CCO)CC2)ccc1Br.Cl

Key:
5.92%
-4.69%

Exercise: Look up and state reported hERG current change (%, negative = inhibition) at 10uM for COc1cccc(-n2c(CN3CCN(Cc4ccccc4)CC3)nc3ccc([N+](=O)[O-])cc3c2=O)c1
Key: -52.8%

---

- ASSAYED SYSTEM: human ether-à-go-go-related gene (hERG) potassium channel (human, UniProt Q12809);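 further: peak tail current of the secondary pulse compared with the same well before compound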
- TEST: primary screen, population patch clamp on CHO cells stably expressing hERG; higher = less effect of the substance
About 14,000 (4.5%) of roughly 310,000 compounds showed an effect of 50% or more. The effect is printed as a negative number. The list comes from a sample in which strong results are over-represented; it also holds close analogues and randomly drawn compounds.
MEASURED PROPERTY: hERG current change (%, negative = inhibition) at 10uM (%)
One number for each entry, in %.

{"COMPOUND": "CC(=O)c1c(C(C)=O)c(C)n(C(c2ccccc2)c2ccccc2)c1C", "UOM": "%", "DATA VALUE": -9.83}
{"COMPOUND": "COc1ccccc1N1CCN(C(=O)CSc2nc3ccccc3c(=O)n2CC2CCCO2)CC1 (stereo not drawn)", "UOM": "%", "DATA VALUE": -67.6}
{"COMPOUND": "CCOc1ccccc1NC(=O)CSc1nc2ccccc2c(=O)n1CC1CCCO1 (stereo not drawn)", "UOM": "%", "DATA VALUE": -68}
{"COMPOUND": "COc1ccccc1NC(=O)CSc1nc2ccccc2c(=O)n1CC1CCCO1 (stereo not drawn)", "UOM": "%", "DATA VALUE": 2.49}

State the recorded hERG current change (%, negative = inhibition) at 10uM for every item in the following list.
1. Cc1nnc(C)c2c(C)n(C(c3ccccc3)c3ccccc3)c(C)c12
2. COc1ccc(OC)c(NC(=O)CSc2nc3ccccc3c(=O)n2CC2CCCO2)c1 (stereo not drawn)

Key:
1. -71.4
2. -41.2

---

- ASSAYED SYSTEM: human ether-à-go-go-related gene (hERG) potassium channel (human, UniProt Q12809);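 further: peak tail current of the secondary pulse compared with the same well before compound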
- TEST: primary screen, population patch clamp on CHO cells stably expressing hERG; higher = less effect of the substance
The campaign covered roughly 310,000 compounds. About 14,000 (4.5%) showed an effect of 50% or more. Effects have a minus sign here. The full list was thinned out, with strong results kept by preference.
I'd be grateful if you could share measured hERG current change (%, negative = inhibition) at 10uM for these entries.
Give bare numbers, in %.

Please review the following examples before continuing.
{"MOLECULE": "CC1=C(C(=O)Nc2ccccn2)C(c2ccccc2Cl)NC(=S)N1 (centres unmarked)", "ASSAYED SYSTEM": "human ether-à-go-go-related gene (hERG) potassium channel (human, UniProt Q12809)", "UOM": "%", "DATA VALUE": 10.1}
{"MOLECULE": "CCn1c2ccccc2c2cc(CN3CCN(S(=O)(=O)CC)CC3)ccc21.O=C(O)C(=O)O", "ASSAYED SYSTEM": "human ether-à-go-go-related gene (hERG) potassium channel (human, UniProt Q12809)", "UOM": "%", "DATA VALUE": -13.4}
{"MOLECULE": "COc1ccc(Cl)cc1S(=O)(=O)N1CCCC(C(=O)NCc2ccncc2)C1 (centres unmarked)", "ASSAYED SYSTEM": "human ether-à-go-go-related gene (hERG) potassium channel (human, UniProt Q12809)", "UOM": "%", "DATA VALUE": -25.7}
{"MOLECULE": "O=C(NCc1ccccc1)C1CCCN(S(=O)(=O)c2ccc(Br)cc2)C1 (centres unmarked)", "ASSAYED SYSTEM": "human ether-à-go-go-related gene (hERG) potassium channel (human, UniProt Q12809)", "UOM": "%", "DATA VALUE": 23.4}

State the recorded hERG current change (%, negative = inhibition) at 10uM for every item in the following list.
1. O=C(NCc1cccnc1)C1CCCN(S(=O)(=O)c2ccc(Br)cc2)C1 (centres unmarked)
2. CCC(CC)c1nnc(NC(=O)c2cc(-c3ccccc3)nc3ccccc23)s1

Key:
-41.6
9.31

State the recorded hERG current change (%, negative = inhibition) at 10uM for every item in the following list.
1. O=C(NCc1ccncc1)C1CCN(S(=O)(=O)c2cc(Cl)ccc2Cl)CC1
2. CCOC(=O)c1cc(-c2ccc(OC)cc2)n(CCC(=O)NC2CCN(Cc3ccccc3)CC2)c1C
3. O=C(NCc1ccncc1)C1CCCN(S(=O)(=O)c2cc(Cl)ccc2Cl)C1 (centres unmarked)
4. CN(C(=O)COC(=O)CCC(=O)c1ccccc1)c1c(N)n(Cc2ccccc2)c(=O)[nH]c1=O
5. Cc1c(C(=O)Nc2ccc(Cl)cc2)c2ccccn2c1CCc1ccncc1
6. CCOC(=O)c1cc(-c2ccc(F)cc2)n(CCC(=O)NC2CCN(Cc3ccccc3)CC2)c1C

Key:
-18.9
-65.7
-61.2
14.1
-5.68
-64.2
